Parameter NF-kB luciferase reporter activity: see the listing below.
Test system: HEK293 NF-kB-luciferase reporter cells
MEASUREMENT_PROTOCOL: NF-kB luciferase reporter activity, robust Z-score vs plate median (robust Z-score (log luminescence)); higher = stronger NF-kB reporter activation
MEASUREMENT_SETUP: TNF 0 ng/mL; TNF treatment time 8.5 h; transfection time 72 h
Form: value (number only, do not type unit).

// recorded NF-kB luciferase reporter activity for AACACACCUGGUUAACCUCUUU : -1.14

The sequence GAAGUGCUUCGAUUUUGGGGUGU showed NF-kB luciferase reporter activity equal to -1.7

response.value for UGGAGAGAAAGGCAGUUC (field: NF-kB luciferase reporter activity) = 0.465

Value of measured NF-kB luciferase reporter activity for the entry UGCUUCCUUUCAGAGGGU : 1.34

The sequence listed as AAAGUGCCUCCUUUUAGAGUGU has a reported NF-kB luciferase reporter activity of -1.14

The sequence listed as CCUAGUAGGUGUCCAGUAAGUGU shows NF-kB luciferase reporter activity equal to -0.0662

* * *

Entries and their NF-kB luciferase reporter activity
Tested on: HEK293 NF-kB-luciferase reporter cells
MEASUREMENT_PROTOCOL: NF-kB luciferase reporter activity, robust Z-score vs plate median (robust Z-score (log luminescence)); higher = stronger NF-kB reporter activation
MEASUREMENT_SETUP: TNF 40 ng/mL; TNF treatment time 8.5 h; transfection time 72 h
Format: numeric value only, no unit, no commentary.

Worked examples follow.
ACUGCCCUAAGUGCUCCUUCU; 0.608
AAAGCGCUUCCCUUUGCUGGA; 0.608
UCACAGUGAACCGGUCUCUUUC; 0.0486
AAAGUGCAUCCUUUUAGAGGUUU; -0.425
AAAGUGCUGCGACAUUUGAGCGU; -1.06
AAAGCGCUUCUCUUUAGAGGA; 0.822
CUCUUGAGGGAAGCACUUUCUGUU; 0.555
GGUAGAUUCUCCUUCUAUGAG; -1.25

Lab note: CUGCAAAGGGAAGCCCUUUCU gave NF-kB luciferase reporter activity of -0.78

get_value(item= UGAAACAUACACGGGAAACCUCUU , readout=NF-kB luciferase reporter activity) returns -0.403

Per the record, CUCUAGAGGGAAGCACUUUCUCU has NF-kB luciferase reporter activity of 0.571

Lab note: measured NF-kB luciferase reporter activity of UCUCUGGAGGGAAGCACUUUCUG was -0.521

AGAUCGACCGUGUUAUAUUCGC yielded NF-kB luciferase reporter activity of -0.0562

get_value(item= UCAGUGCAUGACAGAACUUGGG , readout=NF-kB luciferase reporter activity) returns 0.0929

* * *

Tested on: HEK293 NF-kB-luciferase reporter cells
MEASUREMENT_PROTOCOL: NF-kB luciferase reporter activity, robust Z-score vs plate median (robust Z-score (log luminescence)); higher = stronger NF-kB reporter activation
MEASUREMENT_SETUP: TNF 0 ng/mL; TNF treatment time 8.5 h; transfection time 72 h
NF-kB luciferase reporter activity reference

ACUUUAACAUGGAAGUGCUUUCU; -0.37

The reported value for CUCCUGACUCCAGGUCCUGUGU in terms of NF-kB luciferase reporter activity is 1.44

Entry CAUCCCUUGCAUGGUGGAGGGU — recorded NF-kB luciferase reporter activity = 0.67

Input UGUGACAGAUUGAUAACUGAAA . Output NF-kB luciferase reporter activity: -0.287

Sure, the documented NF-kB luciferase reporter activity for UAUGUGCCUUUGGACUACAUCG is -0.472

According to the records, this sequence AAUCGUACAGGGUCAUCCACUU displays NF-kB luciferase reporter activity of -0.187

NF-kB luciferase reporter activity reading for AGGACCUGCGGGACAAGAUUCUU : -0.175

For this sequence ( CUCUAGAGGGAAGCACUUUCU ), measured NF-kB luciferase reporter activity is 0.466

Short answer for UGCUGACUCCUAGUCCAGGGC : NF-kB luciferase reporter activity was -1.7

Memo: AAAGUGCUUCCUUUUUGAGGG , reported NF-kB luciferase reporter activity: -1.7

Measured NF-kB luciferase reporter activity of CAAAGUGCCUCCCUUUAGAGUGU : 0.645

The sequence UUCAAGUAAUUCAGGAUAGGUU showed NF-kB luciferase reporter activity equal to 0.218

# sequence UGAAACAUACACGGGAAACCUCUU ; its NF-kB luciferase reporter activity = 0.49

Recorded NF-kB luciferase reporter activity (sequence UCCCUGAGACCCUUUAACCUGUG ): 0.417

For reference, reported NF-kB luciferase reporter activity for UAAUACUGCCUGGUAAUGAUGAC stands at 0.744
